measurement-target: Voltage-gated inwardly rectifying potassium channel KCNH2 (Homo sapiens)
assay-method-text: KCNH2 potassium channel function modulators, cell-based (AID 376);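 also: 0% = buffer alone and 100% = reference blocker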
condition-context: hERG-expressing cells, channel activity single-concentration screen; concentration not given here
Hit rate of the full screen: of about 2,000 compounds, about 250 (12%) were called active. Rule as the data show it: active = hERG blockade below about -20% or above about 20%; inactive = in between. Many of the other results were omitted from the sample, so actives are more common in it than they were.
In this exercise, the only acceptable responses are yes (active), no (inactive)

As a guide, the following entries are already answered.
Problem: What was the test verdict on CC12CCC3c4ccc(O)cc4CCC3C1CCC2OP(=O)(O)O (stereo unspecified) ?
Solution: no

Problem: Now this one: CN(C)c1ccc(C(C#N)N2CCCN(C(C#N)c3ccc(N(C)C)cc3)C2c2ccc(N(C)C)cc2)cc1 (stereo unspecified)
Solution: no

Problem: Now this one: CN(Cc1cc(C(C)(C)C)cc(Br)c1O)Cc1cc(C(C)(C)C)cc(Br)c1O
Solution: no

Problem: Now this one: CC(=NNC(=O)c1ccncc1)c1ccc2ccccc2c1O
Solution: no

Problem: Now this one: OCc1ccncc1.OCc1ccncc1.[Cl][Pt]([Cl])([Cl])[Cl]
Solution: no

Further cases:
Problem: What was the test verdict on CC1=NN(C(=O)c2ccncc2)C(=O)C1N=Nc1ccc2ccccc2c1 (stereo unspecified) ?
Solution: yes

Problem: Now this one: O=C(O)C(=Cc1ccc(O)cc1)c1cccc2ccccc12
Solution: no

Problem: Now this one: NC(=S)SCCC(=O)O
Solution: no

Problem: Now this one: CC12CCC3c4ccc(O)cc4CCC3C1CC(=NO)C2O (stereo unspecified)
Solution: no

Problem: Now this one: CC1=NN(c2ccccc2)C(=O)C1N=Nc1ccc(S(N)(=O)=O)cc1 (stereo unspecified)
Solution: no

Problem: Now this one: CC(NCCN(C)C)C1CCC2C3CCc4cc(O)ccc4C3CCC12C (stereo unspecified)
Solution: yes

---

measurement-target: Voltage-gated inwardly rectifying potassium channel KCNH2 (Homo sapiens) (UniProt Q12809)
Sequence (Q12809 whole entry, looked up): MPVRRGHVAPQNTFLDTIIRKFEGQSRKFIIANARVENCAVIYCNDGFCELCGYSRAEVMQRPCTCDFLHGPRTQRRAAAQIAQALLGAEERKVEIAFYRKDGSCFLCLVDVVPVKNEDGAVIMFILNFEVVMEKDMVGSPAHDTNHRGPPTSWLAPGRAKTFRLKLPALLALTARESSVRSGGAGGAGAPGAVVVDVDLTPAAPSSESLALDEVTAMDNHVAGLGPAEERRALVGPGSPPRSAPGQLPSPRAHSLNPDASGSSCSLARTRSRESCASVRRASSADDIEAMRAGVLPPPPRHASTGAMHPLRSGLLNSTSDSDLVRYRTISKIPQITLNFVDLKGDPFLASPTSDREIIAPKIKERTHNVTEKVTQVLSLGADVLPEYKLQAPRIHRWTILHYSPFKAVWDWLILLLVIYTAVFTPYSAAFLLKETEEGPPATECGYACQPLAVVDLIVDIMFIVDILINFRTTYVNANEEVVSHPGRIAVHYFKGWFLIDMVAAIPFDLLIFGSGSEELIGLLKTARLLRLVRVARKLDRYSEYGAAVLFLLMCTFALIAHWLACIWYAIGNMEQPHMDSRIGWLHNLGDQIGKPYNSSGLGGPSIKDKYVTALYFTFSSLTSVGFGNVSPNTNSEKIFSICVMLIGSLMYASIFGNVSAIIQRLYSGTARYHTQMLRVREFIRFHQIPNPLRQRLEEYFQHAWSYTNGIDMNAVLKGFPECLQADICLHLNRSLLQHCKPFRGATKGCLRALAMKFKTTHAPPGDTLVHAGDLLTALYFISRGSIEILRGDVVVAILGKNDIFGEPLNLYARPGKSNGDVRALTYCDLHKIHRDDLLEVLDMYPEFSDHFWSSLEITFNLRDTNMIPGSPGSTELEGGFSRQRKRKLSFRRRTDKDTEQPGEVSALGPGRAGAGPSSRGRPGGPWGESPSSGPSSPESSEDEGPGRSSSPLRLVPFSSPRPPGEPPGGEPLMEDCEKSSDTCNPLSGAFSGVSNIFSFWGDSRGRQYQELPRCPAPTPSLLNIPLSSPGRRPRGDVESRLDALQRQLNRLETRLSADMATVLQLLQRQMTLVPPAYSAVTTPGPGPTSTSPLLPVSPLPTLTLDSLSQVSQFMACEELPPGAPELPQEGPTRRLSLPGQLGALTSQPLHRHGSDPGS
assay-method-text: KCNH2 potassium channel function modulators, cell-based (AID 376);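 also: 0% = buffer alone and 100% = reference blocker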
condition-context: hERG-expressing cells, channel activity single-concentration screen; concentration not given here
In all, about 2,000 compounds went through this assay and about 250 (12%) were called active. No stated cut-off is given here; in the data, active means hERG blockade below about -20% or above about 20%; inactive means in between. What follows is part of a selection rich in actives, with near analogues and random picks from the rest.
In this exercise, the only acceptable responses are Y (active), N (inactive)

As a guide, the following entries are already answered.
Problem: What was the test verdict on NCCCc1ccc2oc3ccccc3c2c1 ?
Solution: Y

Problem: Now this one: Cc1cc2c(cc1C)NC1=C(N2)OC(c2c[nH]c3ccc(COc4ccccc4)cc23)C1=O (centres undefined)
Solution: N

Problem: Now this one: O=C(O)CCn1cnc2c(=S)nc[nH]c21
Solution: Y

Problem: Now this one: c1ccc(CCc2cccnc2)nc1
Solution: N

Problem: Now this one: Fc1cccc(CSc2ncnc3c2ncn3C2CCCS2)c1 (centres undefined)
Solution: N

Problem: Now this one: C[N+](C)(C)c1nc(N)nc2c1ncn2C1OC(CO)C(O)C1O (centres undefined)
Solution: N

Problem: Now this one: Clc1ccc(CSc2ncnc3c2ncn3C2CCCCO2)cc1 (centres undefined)
Solution: Y

Problem: Now this one: OCC1OC(n2cnc3c(C=C(O)c4ccccc4)ncnc32)C(O)C1O (centres undefined)
Solution: N

Problem: Now this one: C(=NNc1ccccn1)c1cccnc1
Solution: Y

Problem: Now this one: O=C1CN2CCN(CC2)CC(=O)Nc2ccc(cc2)S(=O)(=O)c2ccc(cc2)NC(=O)CN2CCN(CC2)CC(=O)Nc2ccc(cc2)S(=O)(=O)c2ccc(cc2)N1
Solution: N

Further cases:
Problem: What was the test verdict on NS(=O)(=O)c1ccc(NCc2cnc3ccccc3c2)cc1 ?
Solution: N

Problem: Now this one: O=C(O)C1C2OC(C(Br)C2Br)C1C(=O)O (centres undefined)
Solution: N

Problem: Now this one: C[N+](C)(C)c1ncnc2c1ncn2C1CCCCO1 (centres undefined)
Solution: Y

Problem: Now this one: NS(=O)(=O)c1ccc(N=Nc2ccc(O)c(C(=O)O)c2)cc1
Solution: N

Problem: Now this one: OCCn1cnc2c(SCc3ccccc3)ncnc21
Solution: N

Problem: Now this one: NS(=O)(=O)c1ccc(NCc2cnc3ccccc3n2)cc1
Solution: N

---

Recorded hERG blockade, one value per entry.
measurement-target: Voltage-gated inwardly rectifying potassium channel KCNH2 (Homo sapiens)
assay-method-text: KCNH2 potassium channel function modulators, cell-based (AID 376);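 also: 0% = buffer alone and 100% = reference blocker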
condition-context: hERG-expressing cells, channel activity single-concentration screen; concentration not given here
Screen size: about 2,000 compounds; about 250 (12%) were called active. Shown is part of a subset that was picked to be rich in actives.
Number only, in %; omit the unit.

# count of solved cases: 2
Problem: State the recorded hERG blockade for this entry: CC1(C)OC2COC(c3[nH]nc4c(=O)[nH]c(=O)[nH]c34)C2O1 (stereo unspecified)
Solution: 16.5

Problem: Now this one: Ic1ccc2c(c1)N(c1ccccc1)c1cc(Nc3ccc4nc5ccc(I)cc5[n+](-c5ccccc5)c4c3)ccc1N2
Solution: 30.3

Further cases:
Problem: State the recorded hERG blockade for this entry: N=C(N)SCc1ccc(Cl)cc1Cl (tested in a mixture with another compound)
Solution: 30.7

Problem: Now this one: CCCn1cnc2c(SCc3ccc(Cl)cc3)nc(N)nc21
Solution: -2.91

Problem: Now this one: O=C(O)c1cc2c(cc1S(=O)(=O)O)C1C(C3C2C2(Cl)C(Cl)=C(Cl)C3(Cl)C2(Cl)Cl)C2(Cl)C(Cl)=C(Cl)C1(Cl)C2(Cl)Cl (stereo unspecified)
Solution: 3.63

Problem: Now this one: CC(C)(COC1CC2CCC1(C)C2(C)C)[N+](=O)[O-] (stereo unspecified)
Solution: -4.38

Problem: Now this one: c1nc(NCCc2cnc[nH]2)c2[nH]cnc2n1
Solution: -31

Problem: Now this one: CC(=NNc1nc(C)cc(=O)[nH]1)C(=O)O
Solution: -18.5

Problem: Now this one: N=C(N)SCc1cc(Cl)cc(Cl)c1O
Solution: 12.3

Problem: Now this one: Clc1ccc(CSCc2ccc(Cl)cc2Cl)c(Cl)c1
Solution: 5.81

Problem: Now this one: O=C(O)CCNc1ncnc2nc[nH]c12
Solution: 14

---

measurement-target: Voltage-gated inwardly rectifying potassium channel KCNH2 (Homo sapiens) (UniProt Q12809)
assay-method-text: KCNH2 potassium channel function modulators, cell-based (AID 376);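 also: 0% = buffer alone and 100% = reference blocker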
condition-context: hERG-expressing cells, channel activity single-concentration screen; concentration not given here
About 250 (12%) of roughly 2,000 compounds were called active. No stated cut-off is given here; in the data, active means hERG blockade below about -20% or above about 20%; inactive means in between. The sample as a whole holds a higher share of actives than the screen did.
In this exercise, the only acceptable responses are T for active, F for inactive

As a guide, the following entries are already answered.
Problem: What was the test verdict on OCCSCc1cc(Cl)cc(Cl)c1O ?
Solution: F

Problem: Now this one: COc1ccc(C(Nc2ncccn2)c2cc3c(cc2O)OCO3)cc1 (stereo not given)
Solution: T

Problem: Now this one: Nc1ncnc2c1nc(-c1ccccc1)n2C1OC(CO)C(O)C1O (stereo not given)
Solution: F

Problem: Now this one: COc1ccc(C(O)c2ccccn2)cc1 (stereo not given)
Solution: F

Problem: Now this one: CN(C)CCNc1ccccn1
Solution: F

Problem: Now this one: CC(=O)NC(Cc1ccc(O)cc1)C(=O)O (stereo not given)
Solution: F

Further cases:
Problem: What was the test verdict on N=C(c1ccc2ccccc2c1)c1ccccc1Cc1ccccc1 ?
Solution: F

Problem: Now this one: Cc1ccc(C2(C)CCC(=NN=C3CCC(C)(c4ccc(C)c(C)c4)c4cc(C)c(C)cc43)c3cc(C)c(C)cc32)cc1C (stereo not given)
Solution: F

---

Recorded hERG blockade, one value per entry.
measurement-target: Voltage-gated inwardly rectifying potassium channel KCNH2 (Homo sapiens) (UniProt Q12809)
assay-method-text: KCNH2 potassium channel function modulators, cell-based (AID 376);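 also: 0% = buffer alone and 100% = reference blocker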
condition-context: hERG-expressing cells, channel activity single-concentration screen; concentration not given here
Among all 2,000 compounds or so, about 250 (12%) were called active. Shown is part of a subset that was picked to be rich in actives.
Number only, in %; omit the unit.

Problem: State the recorded hERG blockade for this entry: OCCSCc1ccccc1
Solution: -16.1

Problem: Now this one: N=C(CC(=O)Nc1ccccn1)c1ccccc1
Solution: -21.8

Problem: Now this one: CCOC(=S)SCC(=O)O
Solution: 0.925

Problem: Now this one: O=C(CC(=O)c1ccncc1)c1ccccc1
Solution: 10.3

Problem: Now this one: C[n+]1cccc(C=Cc2ccc3cccc(O)c3n2)c1
Solution: 48.1

Problem: Now this one: O=C(O)C=CC(=O)Nc1ccccn1
Solution: 5.5

Problem: Now this one: Oc1cccc2ccc(SSc3ccc4cccc(O)c4n3)nc12
Solution: 0.631
